- tgt: recombinant human cGAS enzyme (hcGAS-ΔN, residues 147–522) (Homo sapiens)
- Construct: N-terminally truncated human cGAS (hcGAS-ΔN, residues 147–522); 6xHis-SUMO (N, cleaved yes); made in house; host or cells: Escherichia coli BL21 (DE3)
- experimental-protocol: RNA-based fluorescent biosensor assay of cGAS activity (2',3'-cGAMP formation), in vitro screening
- Type: biochemical
- condition-set: peptides screened at 20 μM; Supplementary Table 1 / Fig. S5b; read-out: Inhibition %
Square brackets hold non-standard residues; d marks the D form. Peptide text beside a SMILES is read from it.
Reported inhibition at 20 µM values are given for each entry in this list.

{"compound": "CC(C)C[C@@H]1NC(=O)[C@H](CCCNC(=N)N)NC(=O)[C@H](C(C)C)NC(=O)[C@@H]2CCCN2C(=O)[C@@H](C)NC(=O)[C@H](C)NC(=O)[C@H](CCCNC(=N)N)NC(=O)[C@H](C(C)C)NC(=O)[C@@H]2CCCN2C(=O)[C@@H](C)NC1=O [XQ17, Cyclo (AaPVRLaPVR)] (cyclo(A[dA]PVRL[dA]PVR))", "inhibition at 20 µM": "32%"}

Turning to the following compound.
[Q] Request the reported inhibition at 20 µM associated with CC(C)C[C@H]1NC(=O)[C@H](Cc2ccccc2)NC(=O)[C@H]2CCCN2C(=O)[C@@H]([C@H](C)O)NC(=O)[C@@H](CCCNC(=N)N)NC(=O)[C@@H](CC(C)C)NC(=O)[C@H](Cc2ccccc2)NC(=O)[C@H]2CCCN2C(=O)[C@@H](C(C)C)NC(=O)[C@@H](CCCNC(=N)N)NC1=O [XQ23, Cyclo (tpFlrvpFlr)] (cyclo(F[dL][dR][dT][dP]F[dL][dR][dV][dP]))
[A] 0%

###

Listed here: items and their measured remaining activity at 20 µM.
- tgt: recombinant human cGAS enzyme (hcGAS-ΔN, residues 147–522) (Homo sapiens, UniProt Q8N884)
- Construct: N-terminally truncated human cGAS (hcGAS-ΔN, residues 147–522); 6xHis-SUMO (N, cleaved yes); made in house; host or cells: Escherichia coli BL21 (DE3)
- Sequence (Q8N884 147-522, stated change not applied): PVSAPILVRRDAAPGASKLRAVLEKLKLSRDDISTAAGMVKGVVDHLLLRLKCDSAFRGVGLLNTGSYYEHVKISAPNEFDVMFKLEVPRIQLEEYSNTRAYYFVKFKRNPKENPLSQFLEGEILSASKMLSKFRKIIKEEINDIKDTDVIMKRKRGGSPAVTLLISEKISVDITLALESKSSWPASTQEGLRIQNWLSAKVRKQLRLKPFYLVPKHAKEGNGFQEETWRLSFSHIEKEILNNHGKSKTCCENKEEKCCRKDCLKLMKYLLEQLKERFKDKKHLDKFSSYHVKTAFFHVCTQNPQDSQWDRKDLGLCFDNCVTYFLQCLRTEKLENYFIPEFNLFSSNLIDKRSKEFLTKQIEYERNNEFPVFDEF
- experimental-protocol: RNA-based fluorescent biosensor assay of cGAS activity (2',3'-cGAMP formation), in vitro screening
- Format: biochemical
- condition-set: 20 μM; replicate values; read-out: Remaining activity (%), Fig. 1a source data
Square brackets hold non-standard residues; d marks the D form. Peptide text beside a SMILES is read from it.

{"compound": "CC(C)C[C@@H]1NC(=O)[C@H](CCCNC(=N)N)NC(=O)[C@H]([C@@H](C)O)NC(=O)[C@@H]2CCCN2C(=O)[C@@H](Cc2ccccc2)NC(=O)[C@H](CC(C)C)NC(=O)[C@H](CCCNC(=N)N)NC(=O)[C@H]([C@@H](C)O)NC(=O)[C@H](C)NC(=O)[C@@H](Cc2ccccc2)NC1=O [XQ35, Cyclo (LfATRLfPTR)] (cyclo(ATRL[dF]PTRL[dF]))", "tgt": "recombinant human cGAS enzyme (hcGAS-ΔN, residues 147–522) (Homo sapiens, UniProt Q8N884)", "remaining activity at 20 µM": "106%"}

Consider the additional compound presented here.
[Q] For the compound shown here, CC(C)C[C@@H]1NC(=O)[C@H](CCCNC(=N)N)NC(=O)[C@H](C)NC(=O)[C@@H]2CCCN2C(=O)[C@@H](Cc2ccccc2)NC(=O)[C@H](CC(C)C)NC(=O)[C@H](CCCNC(=N)N)NC(=O)[C@H](C)NC(=O)[C@@H]2CCCN2C(=O)[C@@H](Cc2ccccc2)NC1=O [XQ9, Cyclo (LfPARLfPAR)] (cyclo(ARL[dF]PARL[dF]P)) , give the reported remaining activity at 20 µM.
[A] 108%

###

- experimental-protocol: in vitro
- condition-set: human, THP1 cells, Cell viability (Fig. S7a)
Square brackets hold non-standard residues; d marks the D form. Peptide text beside a SMILES is read from it.
measured-parameter: viability at 48 h, 0.195312 µM (%)
Answer with a number only, understood to be in %.

[Q] Looking for the measured viability at 48 h, 0.195312 µM of CC(C)C[C@@H]1NC(=O)[C@H](CCCNC(=N)N)NC(=O)[C@H](C(C)C)NC(=O)[C@@H]2CCCN2C(=O)[C@@H](Cc2ccccc2)NC(=O)[C@H](CC(C)C)NC(=O)[C@H](CCCNC(=N)N)NC(=O)[C@H]([C@@H](C)O)NC(=O)[C@H](C)NC(=O)[C@@H](Cc2ccccc2)NC1=O [XQ2B] (cyclo([dF]ATRL[dF]PVRL)) , can you help?
[A] 100

###

A collection of molecules and their measured inhibition at 20 µM
- tgt: recombinant human cGAS enzyme (hcGAS-ΔN, residues 147–522) (Homo sapiens)
- Construct: N-terminally truncated human cGAS (hcGAS-ΔN, residues 147–522); 6xHis-SUMO (N, cleaved yes); made in house; host or cells: Escherichia coli BL21 (DE3)
- experimental-protocol: RNA-based fluorescent biosensor assay of cGAS activity (2',3'-cGAMP formation), in vitro screening
- Format: biochemical
- condition-set: peptides screened at 20 μM; Supplementary Table 1 / Fig. S5b; read-out: Inhibition %
Square brackets hold non-standard residues; d marks the D form. Peptide text beside a SMILES is read from it.
Just the number please, in %, no unit attached.

Sample answers from the record:
{"molecule": "CC(C)C[C@@H]1NC(=O)[C@H](CCCNC(=N)N)NC(=O)[C@H]([C@@H](C)O)NC(=O)[C@@H]2CCCN2C(=O)[C@@H](C(C)C)NC(=O)[C@H](CC(C)C)NC(=O)[C@H](CCCNC(=N)N)NC(=O)[C@H]([C@@H](C)O)NC(=O)[C@@H]2CCCN2C(=O)[C@@H](Cc2ccccc2)NC1=O [XQ31, Cyclo (LvPTRLfPTR)] (cyclo(L[dF]PTRL[dV]PTR))", "tgt": "recombinant human cGAS enzyme (hcGAS-ΔN, residues 147–522) (Homo sapiens)", "unit-annotation": "%", "measured-value": 30}
{"molecule": "CC(C)C[C@@H]1NC(=O)[C@H](CCCNC(=N)N)NC(=O)[C@H](C(C)C)NC(=O)[C@@H]2CCCN2C(=O)[C@@H](Cc2ccccc2)NC(=O)[C@H](CC(C)C)NC(=O)[C@H](CCCNC(=N)N)NC(=O)[C@H](C(C)C)NC(=O)[C@H](C)NC(=O)[C@@H](Cc2ccccc2)NC1=O [XQ2, Cyclo (LfAVRLfPVR)] (cyclo(L[dF]AVRL[dF]PVR))", "tgt": "recombinant human cGAS enzyme (hcGAS-ΔN, residues 147–522) (Homo sapiens)", "unit-annotation": "%", "measured-value": 40}

[Q] For the molecule CC(C)C[C@@H]1NC(=O)[C@H](CCCNC(=N)N)NC(=O)[C@H](C(C)C)NC(=O)[C@@H]2CCCN2C(=O)[C@@H](C)NC(=O)[C@H](C)NC(=O)[C@H](CCCNC(=N)N)NC(=O)[C@H](C(C)C)NC(=O)[C@@H]2CCCN2C(=O)[C@@H](Cc2ccccc2)NC1=O [XQ14, Cyclo (AaPVRLfPVR)] (cyclo(A[dA]PVRL[dF]PVR)) , what inhibition at 20 µM is on record?
[A] 4

###

- experimental-protocol: in vitro
- condition-set: mouse, L929 cells, Cell viability (Fig. S2e), L929 (48h), XQ2 15 μM
Square brackets hold non-standard residues; d marks the D form. Peptide text beside a SMILES is read from it.
measured-parameter: viability at 48 h, 15 µM (%)
Reply numerically in %, unit not repeated.

[Q] Which viability at 48 h, 15 µM reading was recorded for the compound CC(C)C[C@@H]1NC(=O)[C@H](CCCNC(=N)N)NC(=O)[C@H](C(C)C)NC(=O)[C@@H]2CCCN2C(=O)[C@@H](Cc2ccccc2)NC(=O)[C@H](CC(C)C)NC(=O)[C@H](CCCNC(=N)N)NC(=O)[C@H](C(C)C)NC(=O)[C@H](C)NC(=O)[C@@H](Cc2ccccc2)NC1=O [XQ2, Cyclo (LfAVRLfPVR)] (cyclo(L[dF]AVRL[dF]PVR)) ?
[A] 86.3

###

In this section we review reported remaining activity at 20 µM values for a set of molecules.
- tgt: recombinant human cGAS enzyme (hcGAS-ΔN, residues 147–522) (Homo sapiens)
- Construct: N-terminally truncated human cGAS (hcGAS-ΔN, residues 147–522); 6xHis-SUMO (N, cleaved yes); made in house; host or cells: Escherichia coli BL21 (DE3)
- experimental-protocol: RNA-based fluorescent biosensor assay of cGAS activity (2',3'-cGAMP formation), in vitro screening
- Format: biochemical
- condition-set: 20 μM; replicate values; read-out: Remaining activity (%), Fig. 1a source data
Square brackets hold non-standard residues; d marks the D form. Peptide text beside a SMILES is read from it.
Answer with a number only, understood to be in %.

{"molecule": "N=C(N)NCCC[C@@H]1NC(=O)[C@@H]2CCCN2C(=O)[C@@H](Cc2ccccc2)NC(=O)[C@H](CCCNC(=N)N)NC(=O)[C@@H]2CCCN2C(=O)[C@@H](Cc2ccccc2)NC1=O [XQ26, Cyclo (PRfPRf)] (cyclo(PR[dF]PR[dF]))", "remaining activity at 20 µM, %": 116}

[Q] Recorded remaining activity at 20 µM for N=C(N)NCCC[C@@H]1NC(=O)[C@@H]2CCCN2C(=O)[C@H](Cc2ccccc2)NC(=O)[C@H](CCCNC(=N)N)NC(=O)[C@@H]2CCCN2C(=O)[C@@H](Cc2ccccc2)NC1=O [XQ27, Cyclo (RfPRFP)] (cyclo(FPR[dF]PR)) , please?
[A] 107
